Target: T1, Source 1 VEGF-D, mature dimeric recombinant human VEGF-D (CSIRO) (human, UniProt O43915 89-205)
T1 construct: Whole entry named; also called Source 1 VEGF-D dimer; VEGF-D dimer
T1 sequence: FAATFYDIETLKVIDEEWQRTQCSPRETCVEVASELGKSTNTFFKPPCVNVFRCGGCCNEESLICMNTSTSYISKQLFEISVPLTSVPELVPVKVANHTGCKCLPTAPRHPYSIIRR
Assay: SPR Protocol B, KD against that of Ig-1A
Fold-improvement with respect to Ig-1A by entry:
The answer is to be given in fold; state only the numeric part.

| Binder | Unit text | Fold-improvement with respect to Ig-1A |
| --- | --- | --- |
| humanized IgG antibody derived from clone HH41 (antibody, V domains shown, IgG; also called HH41#1; HH41#2) VH: QVQLVQSGAEVKQPGASVKVSCKASGYTFTGYNMYWVRQAPGQGLEWMGYIDPYNGDTTYNQKFKGRVTMTTDTSTSTAYMKLRSLRSDDTAVYYCARTSYYGGMDYWGRGTLVTVAS VL: DIVMTQTPLSSPVTLGQPASISCRSSQSLVHGNGNTYLHWLQQRPGQPPRLLIYKVSNRFSGVPDRFSGSGAGTDFTLKISRVEAEDVGVYYCSQSTHVPRTFGQGTKLEIKR | fold | 4.9 |
| humanized IgG antibody derived from clone HU75 (antibody, V domains shown, IgG) VH: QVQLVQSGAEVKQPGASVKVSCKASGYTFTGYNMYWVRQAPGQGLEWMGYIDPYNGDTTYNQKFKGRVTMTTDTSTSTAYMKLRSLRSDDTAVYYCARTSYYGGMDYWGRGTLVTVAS VL: DIVMTQTPLSGPVTLGQPASISCRSSQSLVHSNGNTYLHWLQQRPGQPPRLLIYKVSNRFSGVPDRFSGSGAGTDFTLKISRVEAEDVGVYYCSQSTHVPRTFGRGTKLEIKR | fold | 4.4 |

Let's switch to this binder now.
Qu. What value of Fold-improvement with respect to Ig-1A has been reported for the following binder? humanized IgG antibody derived from clone HH69 (antibody, V domains shown, IgG) VH: QVQLVQSGAKVKQPGASVKASCKASGYTFTGYNMYWVRQAPGQGLEWMGYIDPYSGDTTYNQKFKGRVTMTTDTSTSTAYMELRSLRSDDTAVYYCARTSYYGGMDYWGRGTLVTVAS VL: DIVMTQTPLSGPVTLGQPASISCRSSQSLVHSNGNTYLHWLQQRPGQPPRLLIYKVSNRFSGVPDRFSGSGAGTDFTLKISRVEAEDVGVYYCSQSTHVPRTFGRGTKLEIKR
Ans. 5.3
